study.system: Receptor-type tyrosine-protein kinase FLT3 (Homo sapiens, UniProt P36888)
Sequence (P36888 whole entry): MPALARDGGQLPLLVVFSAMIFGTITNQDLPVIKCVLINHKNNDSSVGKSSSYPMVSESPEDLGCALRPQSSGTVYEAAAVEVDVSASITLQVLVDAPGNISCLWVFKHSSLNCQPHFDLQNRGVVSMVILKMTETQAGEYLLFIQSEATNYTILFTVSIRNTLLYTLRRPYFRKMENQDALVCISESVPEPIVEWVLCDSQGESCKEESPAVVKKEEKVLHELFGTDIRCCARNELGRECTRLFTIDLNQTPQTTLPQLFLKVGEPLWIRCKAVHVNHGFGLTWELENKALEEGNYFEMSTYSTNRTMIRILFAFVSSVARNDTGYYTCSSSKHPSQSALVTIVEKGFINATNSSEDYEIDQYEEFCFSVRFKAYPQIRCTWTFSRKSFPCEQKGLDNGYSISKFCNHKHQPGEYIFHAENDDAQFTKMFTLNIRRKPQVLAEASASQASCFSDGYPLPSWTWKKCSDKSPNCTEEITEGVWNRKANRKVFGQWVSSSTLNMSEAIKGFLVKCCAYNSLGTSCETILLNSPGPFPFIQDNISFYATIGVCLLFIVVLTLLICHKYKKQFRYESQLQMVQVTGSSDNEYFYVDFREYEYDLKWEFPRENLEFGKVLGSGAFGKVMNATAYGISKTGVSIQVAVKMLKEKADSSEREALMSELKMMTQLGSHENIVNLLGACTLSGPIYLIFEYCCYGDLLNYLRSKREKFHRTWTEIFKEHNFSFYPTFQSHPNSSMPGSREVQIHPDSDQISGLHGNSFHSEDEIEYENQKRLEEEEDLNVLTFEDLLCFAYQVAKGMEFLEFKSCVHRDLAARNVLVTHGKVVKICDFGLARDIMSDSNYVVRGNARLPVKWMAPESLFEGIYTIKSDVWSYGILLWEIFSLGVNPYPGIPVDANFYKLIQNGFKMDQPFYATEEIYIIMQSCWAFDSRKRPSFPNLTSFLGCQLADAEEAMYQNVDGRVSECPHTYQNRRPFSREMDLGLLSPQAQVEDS
outcome.measure: pIC50
Would you please state pIC50, meaning minus log10 of the concentration in mol/L, as a bare number?

O=C(Nc1ccc(CN2CCOCC2)cc1)c1n[nH]cc1Nc1ccnc2ccc(Br)cc12 : 7.77

Field: next compound
Quick one: pIC50 for `CC(C)c1cc2c(Nc3c[nH]nc3C(=O)Nc3ccc(CN4CCOCC4)cc3)ncnc2s1` ?
8.12
